# Assay Info: small-molecule microarray binders of probe aWnt5a, primary screen, biochemical, biotinylated probe, 635/667 nm fluorescence (AID 1113);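 also: score merges 667 nm fluorescence intensity with signal-to-noise per printed feature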
# Settings: higher = more signal
Reported Metric: composite z-score

INSERT INTO results (compound, numeric_value) VALUES
  ('COCC(=C=CC[C@H](O)c1cccc(OCCO)c1)C[C@H](O)COCc1ccccc1', 0.0037),
  ('COc1cc(NN2C(C(O)c3cc(OC)c(OC)c(OC)c3)C=CC3C(=O)N(c4ccccc4)C(=O)C32)cc(OC)c1OC (stereo not drawn)', 0.145),
  ('COCCOC(=O)N1C(=O)[C@@]2(c3cc(C#CCNC(N)=O)ccc31)[C@H](c1ccc(OCCO)cc1)N1[C@H](c3ccccc3)[C@H](c3ccccc3)OC(=O)[C@H]1[C@@H]2C(=O)NC[C@H](O)c1ccccc1', -0.0792);

* * *

Documented composite z-score across a set of compounds
# System: Wnt5a (protein binding on small-molecule microarray)
# Assay Info: Wnt5a binders on small-molecule microarray, primary screen, biophysical, 635/667 nm fluorescence (AID 1142);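 also: fluorescence read at 667 nm with signal to noise per printed feature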
# Settings: 635 nm fluorescence, higher = more signal
Reported Metric: composite z-score

INSERT INTO assay_data (compound, assayed_target, numeric_value) VALUES
  ('CCC(CC)C(O)C1C=CC2C(=O)N(c3ccccc3)C(=O)C2N1Nc1ccc([N+](=O)[O-])cc1 (stereo unspecified)', 'Wnt5a (protein binding on small-molecule microarray)', 0.205),
  ('Cc1c(NC(=O)/C(C#N)=C/c2ccccc2Cl)c(=O)n(-c2ccccc2)n1C', 'Wnt5a (protein binding on small-molecule microarray)', 0.27),
  ('Cc1cccc([C@H]2C[C@H]3C(Br)=C[C@@H]2C(=O)[C@]32CO2)c1', 'Wnt5a (protein binding on small-molecule microarray)', -0.258),
  ('COc1cc(CO)cc(I)c1O[C@H]1C=C(C(=O)NCCO)C[C@@H](NCC2CCCCC2)[C@@H]1O', 'Wnt5a (protein binding on small-molecule microarray)', -0.042),
  ('O=C(CS)NCCCCCNC(=O)[C@@H]1C[C@@H]2C(=O)N[C@@H](Cc3ccccc3)C(=O)N2[C@@H]1c1cccc(OCCO)c1', 'Wnt5a (protein binding on small-molecule microarray)', 0.409),
  ('CO[C@H]1O[C@H](CO)[C@@H](OC(=O)Nc2cccc(F)c2)[C@H](OC(=O)Nc2ccccc2-c2ccccc2)[C@H]1OC(=O)Nc1ccccc1-c1ccccc1', 'Wnt5a (protein binding on small-molecule microarray)', 0.828);

* * *

# Assay Info: small-molecule microarray binders of probe aXIP, primary screen, biochemical, NeuroSMM set, 635/667 nm fluorescence (AID 1119);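 also: probe is the protein aXip251-270 applied at 1 µg/mL to compound-printed slides; binding of probe to printed compounds measured as 667 nm fluorescence plus signal to noise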
# Settings: higher = more signal, called active from +8 up or from −8 down
The source made the active and inactive calls.
Consider the following compounds and their measured composite Z-score readings.
Reported Metric: composite Z-score

INSERT INTO results (compound, reported_metric, result) VALUES
  ('COc1ccc(C(O)C2C=CC3C(=O)N(c4ccccc4)C(=O)C3N2Nc2ccccc2F)cc1 (stereo not given)', 'composite Z-score', '0.319 (inactive)'),
  ('COc1ccc(C(=O)Nc2cccc(CN3C(=O)[C@@]4(O[C@@H](CC(=O)N(CCO)Cc5ccccc5)[C@H]([Si](C)(C)c5ccc(OC)cc5)[C@H]4C)c4ccccc43)c2)cc1', 'composite Z-score', '0.799 (inactive)'),
  ('C[C@]1(C(=O)NCC(F)(F)F)c2ccccc2C(=O)N(Cc2ccccc2)[C@H]1c1ccc(CO)cc1', 'composite Z-score', '-0.222 (inactive)'),
  ('COc1cc(C(O)C2C=CC3C(=O)N(Cc4ccccc4)C(=O)C3N2n2cnnc2)cc(OC)c1OC (stereo not given)', 'composite Z-score', '-0.0603 (inactive)'),
  ('COCCOC(=O)N1C(=O)[C@@]2(c3cc(C#CCNC(N)=O)ccc31)[C@H](c1ccc(O)cc1)N1[C@H](c3ccccc3)[C@H](c3ccccc3)OC(=O)[C@H]1[C@@H]2C(=O)N1CCN(c2ncccn2)CC1', 'composite Z-score', '0.529 (inactive)');
